Below are pIC50 measurements against Prostaglandin G/H synthase 1 (Homo sapiens, UniProt P23219) drawn from the literature.
Sequence (P23219 whole entry): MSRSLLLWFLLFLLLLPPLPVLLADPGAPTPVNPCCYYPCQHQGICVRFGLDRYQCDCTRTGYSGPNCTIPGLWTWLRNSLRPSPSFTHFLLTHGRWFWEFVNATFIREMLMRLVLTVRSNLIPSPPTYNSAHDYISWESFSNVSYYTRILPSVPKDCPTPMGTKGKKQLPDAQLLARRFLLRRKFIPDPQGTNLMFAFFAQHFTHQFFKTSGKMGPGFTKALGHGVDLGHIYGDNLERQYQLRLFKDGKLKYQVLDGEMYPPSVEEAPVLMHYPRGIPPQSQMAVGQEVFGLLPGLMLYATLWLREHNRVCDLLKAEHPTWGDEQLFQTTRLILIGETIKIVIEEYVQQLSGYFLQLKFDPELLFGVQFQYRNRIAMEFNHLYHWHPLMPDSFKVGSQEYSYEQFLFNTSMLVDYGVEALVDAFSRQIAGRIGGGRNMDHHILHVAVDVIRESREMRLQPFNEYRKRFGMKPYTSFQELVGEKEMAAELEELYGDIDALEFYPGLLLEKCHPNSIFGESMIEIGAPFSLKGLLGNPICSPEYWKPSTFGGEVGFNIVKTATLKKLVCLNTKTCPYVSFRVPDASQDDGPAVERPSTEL
pIC50: −log10 of the molar value.
MEASURED QUANTITY: pIC50

INSERT INTO measurements (compound, measured_quantity, readout_number) VALUES
  ('Cc1ccc2c(c1)oc(=O)n2Cc1cn(-c2ccccc2Cl)nn1', 'pIC50', 3.68);

(I) Cc1oc(=O)n(-c2ccccc2)c1-c1ccc(S(N)(=O)=O)cc1
(II) O=S(=O)(Nc1ccncc1Oc1ccccc1Cl)C(F)(F)F
(III) CC(C)C(=O)c1c(O)c([C@H](C2=C(O)C(C)(C)C(=O)C(C)(C)C2=O)C(C)C)c(O)c([C@H](C2=C(O)C(C)(C)C(=O)C(C)(C)C2=O)C(C)C)c1O
Sort by pIC50, descending. Provide your answer as the labels ordered per the instruction.
II, III, I
(II: 6.57, III: 4.77, I: 4.31)
